measuredQuantity: melting point

Bench note: what melting point did CCNC(=O)c1cnn(Cc2ccc(-c3noc(C(F)(F)F)n3)cc2)c1 show? 166 to 176 °C

Try CON(C)C(=O)c1cnn(Cc2ccc(-c3noc(C(F)(F)F)n3)cc2)c1 next. 102 to 112 °C

Try FC(F)(F)c1ncn(Cc2ccc(-c3noc(C(F)(F)F)n3)cc2)n1 next. 68.2 to 70.1 °C

Try CCN(CC)C(=O)c1cnn(Cc2ccc(-c3noc(C(F)(F)F)n3)cc2)c1 next. 86 to 96 °C

Try FC(F)(F)c1nc(-c2ccc(Cn3nnc4cccnc43)cc2)no1 next. 143 to 144 °C

Try CONC(=O)c1cnn(Cc2ccc(-c3noc(C(F)(F)F)n3)cc2)c1 next. 128 to 138 °C

Try CCOC(=O)c1cnn(Cc2ccc(-c3noc(C(F)(F)F)n3)c(F)c2)c1 next. 131 to 135 °C

Try FC(F)(F)c1nc(-c2ccc(Cn3nc4cccnc4n3)cc2)no1 next. 121 to 122 °C

Try CNC(=O)c1cnn(Cc2ccc(-c3noc(C(F)(F)F)n3)cc2)c1 next. 156 to 161 °C

The reported numbers originate from patent US20200315176A1.
